Entry source: patent US6794396B2

- Assay system: CETP in human plasma or serum pool (Homo sapiens, UniProt P11597)
- Construct: from tissue; host or cells: pooled human EDTA plasma or serum from healthy volunteers
- Sequence (P11597 18-493): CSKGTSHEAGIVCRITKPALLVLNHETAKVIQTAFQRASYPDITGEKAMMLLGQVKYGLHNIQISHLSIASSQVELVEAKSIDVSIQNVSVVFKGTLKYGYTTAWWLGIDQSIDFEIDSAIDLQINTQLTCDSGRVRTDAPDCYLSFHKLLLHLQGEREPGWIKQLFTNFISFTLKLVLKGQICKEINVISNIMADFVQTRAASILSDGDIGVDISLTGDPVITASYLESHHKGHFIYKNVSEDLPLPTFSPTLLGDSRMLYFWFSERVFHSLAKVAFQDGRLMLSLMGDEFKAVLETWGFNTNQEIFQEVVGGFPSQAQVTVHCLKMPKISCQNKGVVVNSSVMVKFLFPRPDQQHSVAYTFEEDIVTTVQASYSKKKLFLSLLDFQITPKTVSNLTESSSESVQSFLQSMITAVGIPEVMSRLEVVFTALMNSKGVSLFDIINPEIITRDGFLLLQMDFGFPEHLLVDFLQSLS
- Test details: Whole serum CETP activity assay (tritiated cholesterol ester)
- Assay type: biochemical
- Measurement context: 4 hours at 37° C.
Endpoint: IC50 whole serum CETP activity (µM)
Numbers only, in µM.

Before answering, review these 4 worked examples.
record_smiles=COC(=O)c1c(C(F)F)nc(C(F)(F)F)c(SSc2c(C(F)(F)F)nc(C(F)F)c(C(=O)OC)c2CC(C)C)c1CC(C)C assay_system="CETP in human plasma or serum pool (Homo sapiens, UniProt P11597)" reported=16
record_smiles=COC(=O)c1c(C(F)F)nc(C(F)(F)F)c(SSc2ccc(C(C)(C)C)cc2)c1CC(C)C assay_system="CETP in human plasma or serum pool (Homo sapiens, UniProt P11597)" reported=9
record_smiles=COC(=O)c1c(C(F)F)nc(C(F)(F)F)c(CSc2ccc(Cl)c(Cl)c2)c1CC(C)C assay_system="CETP in human plasma or serum pool (Homo sapiens, UniProt P11597)" reported=70
record_smiles=COC(=O)c1c(C(F)F)nc(C(F)(F)F)c(CSc2ccc3ccccc3c2)c1CC(C)C assay_system="CETP in human plasma or serum pool (Homo sapiens, UniProt P11597)" reported=110

Next item in the queue.
Dear colleague, I am looking for the recorded IC50 whole serum CETP activity of the following compound: `COC(=O)c1c(C(F)F)nc(C(F)(F)F)c(S)c1CC(C)C` 17
